Where do the numbers come from? From patent US20220145396A1.

Tested on: bortezomib resistant PSMB5 mutant cell lines
EXPERIMENT_DESCRIPTION: XTT cell viability assay of bortezomib resistant PSMB5 mutant clones (AN3-12 mouse haploid embryonic stem cells) treated with proteasome inhibitors
Assay type: cell-based
STUDY_CONDITIONS: T21A substitution
ENDPOINT_LABEL: response in cell viability assay

# CHEM_SMILES, VALUE_MEASURED
records = [
    ("CC(C)C[C@H](NC(=O)CNC(=O)c1cc(Cl)ccc1Cl)B(O)O", "resistance"),
    ("CC(C)C[C@H](NC(=O)[C@H](CCc1ccccc1)NC(=O)CN1CCOCC1)C(=O)N[C@@H](Cc1ccccc1)C(=O)N[C@@H](CC(C)C)C(=O)[C@@]1(C)CO1", "hypersensitive"),
    ("COC[C@H](NC(=O)c1cnc(C)s1)C(=O)N[C@@H](COC)C(=O)N[C@@H](Cc1ccccc1)C(=O)[C@@]1(C)CO1", "hypersensitive"),
    ("CC(C)C[C@H](NC(=O)[C@H](Cc1ccccc1)NC(=O)c1cnccn1)B(O)O", "resistance"),
]
